experimentalSystem: canine FcRn (FcRn large subunit with canine beta-2-microglobulin) (canine)
assayName: SPR pH 6.0, IgG coupled to CM5, FcRn 50-800 nM

{"columns": ["binder", "kon"],
 "data": [
  ["anti-NGF canine IgGB antibody, Fc variant A426Y + D312P (antibody, part only; not given: anti-NGF variable domains and light chain, not shown: another chain or arm of the molecule; small tags and cut ends) Fc: APEMLGGPSVFIFPPKPKDTLLIARTPEVTCVVVDLDPEDPEVQISWFVDGKQMQTAKTQPREEQFNGTYRVVSVLPIGHQPWLKGKQFTCKVNNKALPSPIERTISKARGQAHQPSVYVLPPSREELSKNTVSLTCLIKDFFPPDIDVEWQSNGQQEPESKYRTTPPQLDEDGSYFLYSKLSVDKSRWQRGDTFICYVMHEALHNHYTQESLSHSPGK", "137000 M⁻¹ s⁻¹"],
  ["anti-NGF canine IgGB antibody, Fc variant A426H + D312P (antibody, part only; not given: Anti-NGF variable domains, not shown: another chain or arm of the molecule; small tags and cut ends) Fc: APEMLGGPSVFIFPPKPKDTLLIARTPEVTCVVVDLDPEDPEVQISWFVDGKQMQTAKTQPREEQFNGTYRVVSVLPIGHQPWLKGKQFTCKVNNKALPSPIERTISKARGQAHQPSVYVLPPSREELSKNTVSLTCLIKDFFPPDIDVEWQSNGQQEPESKYRTTPPQLDEDGSYFLYSKLSVDKSRWQRGDTFICHVMHEALHNHYTQESLSHSPGK", "145000 M⁻¹ s⁻¹"],
  ["anti-NGF canine IgGB antibody, Fc variant N434R + T286L (antibody, part only; not given: Anti-NGF variable domains, not shown: another chain or arm of the molecule) Fc: APEMLGGPSVFIFPPKPKDTLLIARTPEVTCVVVDLDPEDPEVQISWFVDGKQMQLAKTQPREEQFNGTYRVVSVLPIGHQDWLKGKQFTCKVNNKALPSPIERTISKARGQAHQPSVYVLPPSREELSKNTVSLTCLIKDFFPPDIDVEWQSNGQQEPESKYRTTPPQLDEDGSYFLYSKLSVDKSRWQRGDTFICAVMHEALHRHYTQESLSHSPGK", "180000 M⁻¹ s⁻¹"],
  ["anti-NGF canine IgGB antibody, Fc variant A426H + T286Y (antibody, part only; not given: anti-NGF variable domains and light chain, not shown: another chain or arm of the molecule; small tags and cut ends) Fc: APEMLGGPSVFIFPPKPKDTLLIARTPEVTCVVVDLDPEDPEVQISWFVDGKQMQYAKTQPREEQFNGTYRVVSVLPIGHQDWLKGKQFTCKVNNKALPSPIERTISKARGQAHQPSVYVLPPSREELSKNTVSLTCLIKDFFPPDIDVEWQSNGQQEPESKYRTTPPQLDEDGSYFLYSKLSVDKSRWQRGDTFICHVMHEALHNHYTQESLSHSPGK", "160000 M⁻¹ s⁻¹"],
  ["canine IgGA antibody, Fc variant A426H, variable domain of Gearing et al. 2013 (antibody, part only; not given: Variable domains, not shown: another chain or arm of the molecule; small tags and cut ends) Fc: VPEPLGGPSVLIFPPKPKDILRITRTPEVTCVVLDLGREDPEVQISWFVDGKEVHTAKTQSREQQFNGTYRVVSVLPIEHQDWLTGKEFKCRVNHIDLPSPIERTISKARGRAHKPSVYVLPPSPKELSSSDTVSITCLIKDFYPPDIDVEWQSNGQQEPERKHRMTPPQLDEDGSYFLYSKLSVDKSRWQQGDPFTCHVMHETLQNHYTDLSLSHSPGK", "41400 M⁻¹ s⁻¹"]
]}
